From: ChEMBL document CHEMBL1124228

study system: Potassium-transporting ATPase (Homo sapiens, UniProt P20648)
procedure summary: Antisecretory activity evaluated by the inhibition of 14C -AP uptake in isolated rabbit parietal cells stimulated by dibutyryl cyclic adenosine 3', 5' -monophosphate (dcAMP)
Assay type: functional, Oryctolagus cuniculus
recorded conditions: target entry is the homologue from another species
reported property: IC50 (µM)

a: CCCCN(CCCC)CCCOc1ccc(/C=C/c2nc3ccccc3o2)cc1
b: CCCCN(CCCC)CCCOc1ccc(-c2csc(C)n2)cc1
c: CCCCN(CCCC)CCCOc1ccc(/C=C/c2nc3ccccc3[nH]2)cc1
Descending sort on IC50 required. Order the labels as requested and list them.
b, c, a
(b: 8.4 µM, c: 1.5 µM, a: 0.15 µM)
